Values were extracted from patent US20030138946A1.

measured on: T1, soluble H-2 K^b (K^bsol): heterodimer of truncated K^b heavy chain and murine β-2 microglobulin, purified from Drosophila cells (murine), P01901
T1 chain 1: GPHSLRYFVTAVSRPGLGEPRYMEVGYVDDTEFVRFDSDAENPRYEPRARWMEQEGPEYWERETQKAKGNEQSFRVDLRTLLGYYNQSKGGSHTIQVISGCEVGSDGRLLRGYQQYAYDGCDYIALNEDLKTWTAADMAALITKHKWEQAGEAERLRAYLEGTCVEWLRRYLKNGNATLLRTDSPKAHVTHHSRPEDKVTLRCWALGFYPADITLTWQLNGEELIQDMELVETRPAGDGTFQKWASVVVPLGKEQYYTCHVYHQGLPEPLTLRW
T1 chain 2: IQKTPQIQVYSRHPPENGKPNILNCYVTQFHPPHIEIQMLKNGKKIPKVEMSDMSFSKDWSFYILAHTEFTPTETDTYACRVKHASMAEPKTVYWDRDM
readout type: pKd
One number for each entry, as −log10 of the molar value.

SIINFEKL (modifications not checked) [OVA-8 (ovalbumin 257-264)]; 8.39
SIINFEKLT (modifications not checked) [OVA-9C]; 7.96
LESIINFEKL (modifications not checked) [OVA-10N]; 6.55

Note: attention shifts to another entry.
pKd reading for SIINFEKLTE (modifications not checked) [OVA-10C] : 7.85
